Molecular target: Escherichia coli MG1655 YqhD, native (wild type), SEQ ID NO: 56 (Escherichia coli)
Sequence (Q46856 1-387): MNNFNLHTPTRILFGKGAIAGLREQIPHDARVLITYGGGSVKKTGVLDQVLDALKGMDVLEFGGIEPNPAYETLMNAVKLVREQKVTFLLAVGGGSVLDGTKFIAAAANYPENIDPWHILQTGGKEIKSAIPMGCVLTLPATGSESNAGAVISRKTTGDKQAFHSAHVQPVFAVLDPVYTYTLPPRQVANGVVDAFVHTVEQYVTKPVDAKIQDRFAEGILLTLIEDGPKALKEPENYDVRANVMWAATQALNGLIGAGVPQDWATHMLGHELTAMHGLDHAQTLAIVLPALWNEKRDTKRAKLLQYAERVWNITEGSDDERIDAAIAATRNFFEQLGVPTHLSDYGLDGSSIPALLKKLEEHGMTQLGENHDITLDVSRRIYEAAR
READOUT: pKi
Formally, pKi is defined as -log10 of the concentration c, with c in mol/L.

The molecule listed as "NC(=O)c1ccc[n+]([C@@H]2O[C@H](COP(=O)([O-])OP(=O)(O)OC[C@H]3O[C@@H](n4cnc5c(N)ncnc54)[C@H](OP(=O)(O)O)[C@@H]3O)[C@@H](O)[C@H]2O)c1" has a reported pKi of 4.17
